Reference source for all entries: patent US5264429A

Molecular target: human leukocyte elastase (HLE) (Homo sapiens)
Sequence (P08246 30-247 limits assumed): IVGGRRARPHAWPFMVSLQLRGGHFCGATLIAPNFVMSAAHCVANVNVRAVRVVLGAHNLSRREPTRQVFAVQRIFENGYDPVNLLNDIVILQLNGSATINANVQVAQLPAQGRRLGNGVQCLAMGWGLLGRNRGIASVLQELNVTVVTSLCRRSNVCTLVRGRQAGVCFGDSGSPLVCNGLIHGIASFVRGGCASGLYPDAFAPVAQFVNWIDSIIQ
Test: Enzyme Assay for Inhibition of HLE
Details: HLE 10 nM, pH 7.6, 10 minute preincubation, 30° C.
Readout name: IC50 (µM)

Compound	Experimental target	Reading unit	IC50
CC1=C(C(=O)N2CCCC2)N2C(=O)[C@H](Br)[C@H]2S(=O)(=O)C12CC2(c1ccccc1)c1ccccc1 (stereo partly shown)	human leukocyte elastase (HLE) (Homo sapiens)	µM	0.0107
CO[C@H]1C(=O)N2C(C(=O)N3CCCCC3)=C(C)C3(CC3(c3ccccc3)c3ccccc3)S(=O)(=O)[C@H]12 (stereo partly shown)	human leukocyte elastase (HLE) (Homo sapiens)	µM	0.0107

a. CC1=C(C(=O)OC(c2ccccc2)c2ccccc2)N2C(=O)[C@H](Br)[C@H]2S(=O)(=O)C12CC2c1ccccc1 (stereo partly shown)
b. CC1=C(C(=O)OC(c2ccccc2)c2ccccc2)N2C(=O)[C@H](Br)[C@H]2S(=O)(=O)C12CC2(c1ccc(Cl)cc1)c1ccc(Cl)cc1 (single isomer, unassigned)
Between these two entries, a and b , state which has the higher IC50. When you have decided, please share the label of that item.
b
(b: 0.0101 µM, a: 0.00657 µM)
